B1: HDAC6 (parent)
chain: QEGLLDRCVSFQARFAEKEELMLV

variants of: B1; assay: protein stability index of a GFP-peptide fusion (GPS, HEK-293T) (PSI 1-6); higher = more stable; details: c terminus: a fixed tail appended;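 note: lentivirally expressed fusions sorted by FACS into six bins by GFP to DsRed ratio, PSI derived from sequencing read proportions per bin multiplied by bin number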
Use Fulfilled when the recorded protein stability index is no lower than 2; use Not fulfilled when it is lower.

Field: example entries. Status: answers known.
residue change	class name
E19T	Fulfilled
F11D	Fulfilled
E2F	Not fulfilled
R7W	Not fulfilled
V9S	Fulfilled

Asked: Hi team, for `V9N` , is the recorded protein stability index at or above 2?
Given back: Fulfilled

Asked: Hi team, for `E19C` , is the recorded protein stability index at or above 2?
Given back: Not fulfilled

Asked: Hi team, for `K18L` , is the recorded protein stability index at or above 2?
Given back: Not fulfilled

Asked: Hi team, for `L4E` , is the recorded protein stability index at or above 2?
Given back: Not fulfilled

Asked: Hi team, for `F11K` , is the recorded protein stability index at or above 2?
Given back: Fulfilled

Asked: Hi team, for `F11V` , is the recorded protein stability index at or above 2?
Given back: Fulfilled

Asked: Hi team, for `E20M` , is the recorded protein stability index at or above 2?
Given back: Not fulfilled

Asked: Hi team, for `E19G` , is the recorded protein stability index at or above 2?
Given back: Fulfilled
